molecular target: hERG tail currents in HEK293-hERG cells (Homo sapiens (Human), UniProt Q12809); test: hERG patch-clamp assay; conditions: whole cell patch-clamp, tail current at -40 mV, read-out: half maximal inhibitory concentration of hERG tail currents (IC50)
Sequence (Q12809 whole entry): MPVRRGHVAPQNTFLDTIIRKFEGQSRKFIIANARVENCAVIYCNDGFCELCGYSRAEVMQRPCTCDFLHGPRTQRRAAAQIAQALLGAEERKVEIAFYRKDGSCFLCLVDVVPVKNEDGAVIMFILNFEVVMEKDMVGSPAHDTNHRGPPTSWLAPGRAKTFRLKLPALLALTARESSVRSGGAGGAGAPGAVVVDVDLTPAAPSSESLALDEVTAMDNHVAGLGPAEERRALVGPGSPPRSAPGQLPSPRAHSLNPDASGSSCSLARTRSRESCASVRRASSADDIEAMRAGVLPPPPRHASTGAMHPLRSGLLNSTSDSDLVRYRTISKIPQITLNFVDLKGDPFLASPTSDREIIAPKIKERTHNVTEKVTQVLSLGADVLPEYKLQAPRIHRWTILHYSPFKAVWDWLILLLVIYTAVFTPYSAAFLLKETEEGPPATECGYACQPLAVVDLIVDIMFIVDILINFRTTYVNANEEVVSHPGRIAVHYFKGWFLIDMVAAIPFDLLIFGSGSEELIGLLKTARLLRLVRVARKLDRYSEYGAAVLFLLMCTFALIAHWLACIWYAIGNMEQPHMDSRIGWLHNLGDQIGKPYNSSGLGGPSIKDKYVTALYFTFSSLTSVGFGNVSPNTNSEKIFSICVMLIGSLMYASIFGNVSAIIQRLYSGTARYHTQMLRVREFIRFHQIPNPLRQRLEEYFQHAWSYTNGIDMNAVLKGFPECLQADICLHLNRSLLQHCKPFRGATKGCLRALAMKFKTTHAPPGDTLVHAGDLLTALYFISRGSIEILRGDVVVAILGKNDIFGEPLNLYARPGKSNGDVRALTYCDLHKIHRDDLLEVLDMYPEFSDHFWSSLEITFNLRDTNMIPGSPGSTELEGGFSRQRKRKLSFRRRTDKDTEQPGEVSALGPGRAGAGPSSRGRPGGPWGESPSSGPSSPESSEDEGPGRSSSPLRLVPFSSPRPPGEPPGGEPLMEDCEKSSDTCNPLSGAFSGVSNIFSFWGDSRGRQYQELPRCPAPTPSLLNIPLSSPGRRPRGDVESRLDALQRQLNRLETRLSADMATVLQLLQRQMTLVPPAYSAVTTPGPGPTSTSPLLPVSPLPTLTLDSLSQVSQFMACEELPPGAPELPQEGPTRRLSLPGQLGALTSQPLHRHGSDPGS
pIC50: −log10 of the molar value.
Measured parameter: pIC50

Lab note: CC(C)n1c(=O)c(C(=O)NC2CC3CCC(C2)N3C[C@@H](O)CN(C)S(C)(=O)=O)cc2cccn21.O=C(O)C(O)C(O)C(=O)O (single isomer, unassigned) [Example 2] gave pIC50 of < 5.00

* * *

biological target: 5-HT4 receptors (Homo sapiens (Human), UniProt Q13639); assay: Determination of EC50 values for 5-HT4 receptor (pCRE-Luc reporter assay); details: CHO cells expressing recombinant human 5-HT4 receptor and pCRE-Luc reporter; 4 h incubation; luciferase activity
Sequence (Q13639 whole entry): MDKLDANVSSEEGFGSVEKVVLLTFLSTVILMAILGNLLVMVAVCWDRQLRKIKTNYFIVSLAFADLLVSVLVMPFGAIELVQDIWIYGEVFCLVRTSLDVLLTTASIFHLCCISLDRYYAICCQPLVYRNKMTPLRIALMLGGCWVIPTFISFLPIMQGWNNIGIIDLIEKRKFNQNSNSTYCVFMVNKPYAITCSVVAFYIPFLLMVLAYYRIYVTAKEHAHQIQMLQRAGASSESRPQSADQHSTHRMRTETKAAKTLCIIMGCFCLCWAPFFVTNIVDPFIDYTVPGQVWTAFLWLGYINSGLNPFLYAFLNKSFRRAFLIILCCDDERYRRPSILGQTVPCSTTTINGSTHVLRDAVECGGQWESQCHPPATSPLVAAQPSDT
Would you kindly list pEC50 for each of these compounds?
Answers are plain numbers, as −log10 of the molar value.

# Compound, Target system, Measured parameter, Numeric value
data = [
    ("CC(C)n1c(=O)c(C(=O)NC2CC3CCC(C2)N3CCNS(C)(=O)=O)cc2cccn21.O=C(O)C(O)C(O)C(=O)O (stereo not shown)", "5-HT4 receptors (Homo sapiens (Human), UniProt Q13639)", "pEC50", 7.92),
    ("CC(C)n1c(=O)c(C(=O)NC2CC3CCC(C2)N3C[C@@H](O)CN2CCN(S(C)(=O)=O)CC2)cc2cccn21 (stereo partly shown)", "5-HT4 receptors (Homo sapiens (Human), UniProt Q13639)", "pEC50", 8.62),
]

Hey, can you go through the list below and give me pEC50 for every item?
1. COC(=O)NCCCN1C2CCC1CC(NC(=O)c1cc3cccn3n(C(C)C)c1=O)C2 (stereo not shown)
2. CC(C)n1c(=O)c(C(=O)NC2CC3CCC(C2)N3CCCNS(=O)(=O)C(C)C)cc2cccn21 (stereo not shown)
3. CC(C)n1c(=O)c(C(=O)NC2CC3CCC(C2)N3CCNS(=O)(=O)C(C)C)cc2cccn21 (stereo not shown)
4. CC(C)n1c(=O)c(C(=O)NC2CC3CCC(C2)N3C[C@@H](O)CN(C)S(C)(=O)=O)c(O)c2cccn21 (stereo partly shown) [Example 8]
5. CC(C)n1c(=O)c(C(=O)NC2CC3CCC(C2)N3C[C@H](O)CN(C)S(C)(=O)=O)cc2cccn21 (single isomer, unassigned)

1: 7.92; 2: 7.89; 3: 7.80; 4: 8.21; 5: 8.05

* * *

biological target: 5-HT4 receptors (Homo sapiens (Human)); assay: Determination of EC50 values for 5-HT4 receptor (pCRE-Luc reporter assay); conditions: CHO cells expressing recombinant human 5-HT4 receptor and pCRE-Luc reporter; 4 h incubation; luciferase activity
# strict inequality: EC50 < 4 nM yields yes (1), everything else yields no (0)

Example results:
# Compound, Qualitative label
measured = [
    ("CC(C)n1c(=O)c(C(=O)NC2CC3CCC(C2)N3C[C@@H](O)CN2CCN(S(C)(=O)=O)CC2)c(O)c2cccn21 (some centres unmarked) [Example 20]", "no (0)"),
    ("CC(C)n1c(=O)c(C(=O)NC2CC3CCC(C2)N3CC(O)CN(C)S(C)(=O)=O)cc2cccn21 (racemic) [Example 5]", "yes (1)"),
    ("COC(=O)NCCN1C2CCC1CC(NC(=O)c1cc3cccn3n(C(C)C)c1=O)C2 (centres unmarked) [Example 35]", "no (0)"),
    ("CC(C)n1c(=O)c(C(=O)NC2CC3CCC(C2)N3C[C@@H](O)CN(C)S(C)(=O)=O)cc2cccn21 (single isomer, unassigned) [Example 1]", "yes (1)"),
    ("CC(=O)N(C)C[C@H](O)CN1C2CCC1CC(NC(=O)c1cc3cccn3n(C(C)C)c1=O)C2 (some centres unmarked) [Example 15]", "no (0)"),
    ("CC(C)n1c(=O)c(C(=O)NC2CC3CCC(C2)N3CC(O)CN(C)S(C)(=O)=O)cc2cccn21 (racemic) [Example 6]", "yes (1)"),
]

Please check: EC50 for CC(C)n1c(=O)c(C(=O)NC2CC3CCC(C2)N3C[C@@H](O)CNS(C)(=O)=O)cc2cccn21 (some centres unmarked) [Example 14] , strictly under 4 nM or not?
no (0)
